Species on record: Homo sapiens
Assay: Inhibition of […] urease using urea as substrate at 10 uM preincubated for 5 min before substrate addition measured after 10 min relative to control
endpoint: inhibition

| smiles-string | test-result |
| --- | --- |
| O=C1Nc2ccc([N+](=O)[O-])cc2/C1=N/NC(=S)Nc1ccc(I)cc1 | 47% |
| CCCCCCNC(=S)N/N=C1\C(=O)Nc2ccc([N+](=O)[O-])cc21 | 27% |
| NC(N)=S | 8.09% |
| COc1ccc(NC(=S)N/N=C2\C(=O)Nc3ccc([N+](=O)[O-])cc32)cc1 | 38.6% |
| O=C1Nc2ccc([N+](=O)[O-])cc2/C1=N/NC(=S)Nc1ccccc1C(F)(F)F | 20.9% |
| Cc1ccc(NC(=S)N/N=C2\C(=O)Nc3ccc([N+](=O)[O-])cc32)cc1 | 4% |
| O=C1Nc2ccc([N+](=O)[O-])cc2/C1=N/NC(=S)Nc1ccc(Br)cc1 | 8% |
| COc1ccc(NC(=S)N/N=C2\C(=O)Nc3ccc([N+](=O)[O-])cc32)c(OC)c1 | 53.5% |
| C=CCNC(=S)N/N=C1\C(=O)Nc2ccc([N+](=O)[O-])cc21 | 8% |
| Cc1cccc(NC(=S)N/N=C2\C(=O)Nc3ccc([N+](=O)[O-])cc32)c1 | 22% |

Briefly, inhibition measured for N#Cc1cccc(NC(=S)N/N=C2\C(=O)Nc3ccc([N+](=O)[O-])cc32)c1 : 12.6%

Briefly, inhibition measured for COc1ccc(OC)c(NC(=S)N/N=C2\C(=O)Nc3ccc([N+](=O)[O-])cc32)c1 : 17.8%

----------
Species on record: Homo sapiens
Experiment: Inhibition of […] urease using urea as substrate at 0.1 uM preincubated for 5 min before substrate addition measured after 10 min relative to control
endpoint: inhibition (%)
Numeric answer only, unit % assumed.

Recorded results for 2 compounds are shown here.
| smiles-string | units | inhibition |
| --- | --- | --- |
| O=C1Nc2ccc([N+](=O)[O-])cc2/C1=N/NC(=S)Nc1ccc(Br)cc1 | % | 4.5 |
| COc1ccc(NC(=S)N/N=C2\C(=O)Nc3ccc([N+](=O)[O-])cc32)cc1 | % | 44 |

// switching to the query compound
Briefly, inhibition measured for O=C1Nc2ccc([N+](=O)[O-])cc2/C1=N/NC(=S)Nc1ccccc1 : 5.8

----------
Assay: Toxicity inArtemia salina (brine shrimp) larvae assessed as mortality after 24 hr
Assay type: organism-based
Conditions: artemia salina, in vivo; read-out: LD50
endpoint: LC50 at 24 h

Recorded results for 8 compounds are shown here.
| smiles-string | test-result |
| --- | --- |
| O=C1Nc2ccc([N+](=O)[O-])cc2/C1=N/NC(=S)Nc1ccc(I)cc1 | > 1070 µM |
| O=C1Nc2ccc([N+](=O)[O-])cc2/C1=N/NC(=S)Nc1ccccc1C(F)(F)F | > 1220 µM |
| Cc1ccc(NC(=S)N/N=C2\C(=O)Nc3ccc([N+](=O)[O-])cc32)cc1 | > 1400 µM |
| CCCCCCNC(=S)N/N=C1\C(=O)Nc2ccc([N+](=O)[O-])cc21 | > 1430 µM |
| O=C1Nc2ccc([N+](=O)[O-])cc2/C1=N/NC(=S)Nc1ccccc1 | > 1470 µM |
| O=C1Nc2ccc([N+](=O)[O-])cc2/C1=N/NC(=S)Nc1ccc(F)cc1 | > 1390 µM |
| COc1ccc(NC(=S)N/N=C2\C(=O)Nc3ccc([N+](=O)[O-])cc32)c(OC)c1 | > 1240 µM |
| Cc1cccc(NC(=S)N/N=C2\C(=O)Nc3ccc([N+](=O)[O-])cc32)c1 | > 1400 µM |

Briefly, LC50 at 24 h measured for O=C1Nc2ccc([N+](=O)[O-])cc2/C1=N/NC(=S)Nc1ccc(Br)cc1 : > 1190 µM

Briefly, LC50 at 24 h measured for COc1ccc(OC)c(NC(=S)N/N=C2\C(=O)Nc3ccc([N+](=O)[O-])cc32)c1 : > 1240 µM
